Molecular target: T1, C-terminally FLAG-tagged human Gas6 recombinant protein (hGas6-F) (human, UniProt Q14393 31-678, gamma-carboxylated glutamic acid residues in the Gla domain (producer cells co-express rat VKOR and human GGCX); positions not given)
T1 construct: also called human Gas6-F; human Gas6 protein
T1 sequence: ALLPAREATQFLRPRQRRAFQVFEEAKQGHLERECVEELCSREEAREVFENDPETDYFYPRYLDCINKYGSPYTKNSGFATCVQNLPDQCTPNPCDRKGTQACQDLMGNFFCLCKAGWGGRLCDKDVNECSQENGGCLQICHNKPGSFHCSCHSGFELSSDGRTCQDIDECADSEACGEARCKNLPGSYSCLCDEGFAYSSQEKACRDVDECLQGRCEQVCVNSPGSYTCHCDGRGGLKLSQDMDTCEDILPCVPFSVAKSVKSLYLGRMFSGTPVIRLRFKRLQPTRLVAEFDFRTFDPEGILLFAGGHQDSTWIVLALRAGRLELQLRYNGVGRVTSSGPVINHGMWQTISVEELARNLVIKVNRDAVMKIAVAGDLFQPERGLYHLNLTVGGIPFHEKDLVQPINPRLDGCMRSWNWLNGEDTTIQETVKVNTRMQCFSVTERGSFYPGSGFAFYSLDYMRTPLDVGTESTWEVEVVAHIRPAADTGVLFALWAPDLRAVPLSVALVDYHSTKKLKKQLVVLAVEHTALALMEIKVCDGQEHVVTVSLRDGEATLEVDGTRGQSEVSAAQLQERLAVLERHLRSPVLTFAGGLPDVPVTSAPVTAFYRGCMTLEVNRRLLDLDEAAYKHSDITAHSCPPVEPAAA
Assay: ELISA, hGas6-F captured by anti-FLAG, anti-human IgG-HRP
Procedure: First, 2 μg/mL anti-FLAG antibody [Monoclonal ANTI-FLAG M2 antibody produced in mouse (manufactured by Sigma-Aldrich Co. LLC) diluted with PBS (manufactured by Nacalai Tesque, Inc.)] was dispensed at 50 μL/well to a 96-well plate for ELISA (manufactured by Nalge Nunc International), and the plate was left standing overnight at 4° C. for adsorption. […]
endpoint-label: EC50
# output: numeric value plus its unit

## Task Quote EC50 reported for hzKM5321 LV6HV2b antibody (antibody, V domains shown, Humanized; variant human IgG4 constant region (EU S228P, L235E, R409K), human kappa; also called B-24; LV6HV2b) VH: QVHLVQSGPELKKPGASVKISCKASGYTFTNYGMNWVRQAPGQGLEWMGWINTNTGEPTYTEEFKGRFVFSLDTSVTTSYLQISTLKAEDTATYFCARDEGWFVYWGQGTLVTVSS VL: ETTLTQSPSSLSVSTGDRVTITCITSTDIDDDMNWYQQKPGKPPKLLISEGNTLRPGVPSRFSSSGSGTDFTLTISSTQPEDFADYYCLQTDSVPLTFGQGTKVEIK please.
## Result 0.00595 mg/L

## Task Quote EC50 reported for KM5320 chimeric antibody (antibody, V domains shown, also called KM5320 chimera; A-01) VH: QIQLVQSGPELKKPGETVKISCKASGYTFTNYGMNWVKQAPGKGLKWMGWINTETGEPTYSDDFKGRFAFSLETSATTAYLQINNLRNEDMATYFCAREDGYYGTLDYWGQGTSVTVSS VL: SIVMTQTPKFLLVSAGDRVTITCKASQSVSNDVAWYQQKPGQSPKVLIYYASNRYTGVPDRFTGSGYGTDFTFTISTVQAEDLAVYFCQQDYSSPWTFGGGTKLEIK please.
## Result 0.0113 mg/L

## Task Quote EC50 reported for hzKM5320 LV5HV2 antibody (antibody, V domains shown, Humanized; variant human IgG4 constant region (EU S228P, L235E, R409K), human kappa; also called kzKM5320 LV5HV2; A-20) VH: QVQLVQSGSELKKPGASVKVSCKASGYTFTNYGMNWVRQAPGQGLEWMGWINTETGEPTYSDDFKGRFVFSLDTSVSTAYLQISSLKAEDTATYFCAREDGYYGTLDYWGQGTTVTVSS VL: DIVMTQSPDSLAVSLGERVTINCKASQSVSNDVAWYQQKPGQSPKVLIYYASNRYTGVPDRFSGSGSGTDFTFTISSVQAEDVAVYFCQQDYSSPWTFGQGTKLEIK please.
## Result 0.0122 mg/L
